Source listed as paper PMC9386376.

# Test system: MCF-7 cells
# ASSAY DETAILS: MTT antiproliferative assay, MCF-7
# TEST CONDITIONS: Homo sapiens, MCF7, read-out: IC50 MCF-7
Here the recorded IC50 is given for each entry.
Report as a plain number; the unit µM is understood.

// below: answered compounds
| COMPOUND | VALUE REPORTED |
| --- | --- |
| O=C(COCC(=O)Nc1ccc([C@@H]2[C@H]3CSCN3[C@]3(C(=O)Nc4cc(Cl)ccc43)[C@H]2C(=O)c2ccccc2)cc1)NO | 3.47 |
| COc1ccc(C2=N[C@@H](c3ccc(Cl)cc3)[C@@H](c3ccc(Cl)cc3)N2C(=O)N2CCNC(=O)C2)c(OC(C)C)c1 [Nutlin-3, reference compound] | 9.75 |
| O=C(CCCCCCC(=O)Nc1ccc([C@@H]2[C@@H](c3ccccc3)N[C@]3(C(=O)Nc4cc(Cl)ccc43)[C@H]2C(=O)c2ccccc2)cc1)NO [15a] | 5.71 |

INPUT: For O=C(CCCCC(=O)N1CCC(C(=O)Nc2ccc([C@@H]3[C@H]4CSCN4[C@]4(C(=O)Nc5cc(Cl)ccc54)[C@H]3C(=O)c3ccccc3)cc2)CC1)NO [11a] , what is its reported IC50?
OUTPUT: 4.48

INPUT: For O=C(CCCCCCC(=O)N1CCC(C(=O)Nc2ccc([C@@H]3[C@H]4CSCN4[C@]4(C(=O)Nc5cc(Cl)ccc54)[C@H]3C(=O)c3ccccc3)cc2)CC1)NO [compound 11b] , what is its reported IC50?
OUTPUT: 1.37
